- assayDetails: Noncompartmental PK of rutin after oral administration of pure rutin or P. peruviana extract
- Type: in vivo, New Zealand White rabbits
- conditionSet: male, New Zealand White, rabbit, po; rutin in plasma; pure rutin 100 mg/kg, extract equivalent to 7.4 mg/kg of rutin; NCA; mean ± SD, n = 5
attributeMeasured: Tmax (min)
One number for each entry, in min.

molecule C[C@@H]1O[C@@H](OC[C@H]2O[C@@H](Oc3c(-c4ccc(O)c(O)c4)oc4cc(O)cc(O)c4c3=O)[C@H](O)[C@@H](O)[C@@H]2O)[C@H](O)[C@H](O)[C@H]1O [Pure Rutin, quercetin-3-O-rutinoside] , Tmax observed: 45

Measured values drawn from paper PMC11510156 for this set.
